Reported values of Mean fluorescence intensity for individual entries
# Study system: T1, human LAG-3 on cells (HEK293-hLAG-3 stable cell line) (human, UniProt P18627 23-525)
# T1 sequence: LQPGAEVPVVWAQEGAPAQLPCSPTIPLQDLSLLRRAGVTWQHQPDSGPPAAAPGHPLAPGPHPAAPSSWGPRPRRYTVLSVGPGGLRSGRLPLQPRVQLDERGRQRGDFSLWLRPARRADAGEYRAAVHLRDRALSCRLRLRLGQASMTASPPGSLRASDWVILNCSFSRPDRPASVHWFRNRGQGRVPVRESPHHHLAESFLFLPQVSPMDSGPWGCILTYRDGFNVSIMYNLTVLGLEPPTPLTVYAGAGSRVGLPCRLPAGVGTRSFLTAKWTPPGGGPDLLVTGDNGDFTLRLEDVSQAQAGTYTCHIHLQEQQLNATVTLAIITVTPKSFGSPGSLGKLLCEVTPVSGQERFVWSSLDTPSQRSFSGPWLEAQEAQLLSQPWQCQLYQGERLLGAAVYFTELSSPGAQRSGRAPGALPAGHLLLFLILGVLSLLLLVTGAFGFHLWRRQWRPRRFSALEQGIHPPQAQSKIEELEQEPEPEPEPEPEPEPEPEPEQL
# Assay method text: FACS, HEK293-hLAG-3, antibody 0.32 nM
Write no unit; give the number alone.

Examples with answers:
Binder	Mean fluorescence intensity
405B8H3-4 humanized antibody (antibody, V domains shown) VH: QVQLVQSGAEVKKPGASVKVSCKASGYTFTDYEMHWVKQAPGQGLEWIGATDPETGNSAYNQKFKGKATMTADKSTSTAYMELSSLRSEDTAVYYCISTGWNDWGQGTTVTVSS VL: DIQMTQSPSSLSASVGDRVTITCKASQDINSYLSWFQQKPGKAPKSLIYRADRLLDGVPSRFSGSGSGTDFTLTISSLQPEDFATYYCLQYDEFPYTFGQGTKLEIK	63
405B8H3-1 humanized antibody (antibody, V domains shown) VH: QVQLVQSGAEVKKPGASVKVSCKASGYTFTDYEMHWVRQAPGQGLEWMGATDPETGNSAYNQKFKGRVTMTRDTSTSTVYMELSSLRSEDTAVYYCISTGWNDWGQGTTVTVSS VL: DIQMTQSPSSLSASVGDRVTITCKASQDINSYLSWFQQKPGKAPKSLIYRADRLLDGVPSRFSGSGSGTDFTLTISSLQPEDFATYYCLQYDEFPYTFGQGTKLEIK	73
405B8H3-12 humanized antibody (antibody, V domains shown) VH: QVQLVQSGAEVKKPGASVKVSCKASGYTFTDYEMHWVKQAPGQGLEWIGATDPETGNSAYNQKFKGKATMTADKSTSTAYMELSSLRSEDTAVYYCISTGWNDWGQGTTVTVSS VL: DIKMTQSPSSLSASVGDRVTITCKASQDINSYLSWFQQKPGKSPKSLIYRADRLLDGVPSRFSGSGSGQDYTLTISSLQPEDFATYYCLQYDEFPYTFGQGTKLEIK	61
405B8H3 mouse-human chimeric antibody (antibody, V domains shown, also called mAb103-405B8H3) VH: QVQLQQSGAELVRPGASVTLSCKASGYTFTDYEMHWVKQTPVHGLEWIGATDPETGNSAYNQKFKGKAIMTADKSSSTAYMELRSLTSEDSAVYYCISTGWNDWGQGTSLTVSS VL: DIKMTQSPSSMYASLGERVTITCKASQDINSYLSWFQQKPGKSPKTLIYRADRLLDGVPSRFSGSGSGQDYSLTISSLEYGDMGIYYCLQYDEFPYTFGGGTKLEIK	54
405B8H3-8 humanized antibody (antibody, V domains shown) VH: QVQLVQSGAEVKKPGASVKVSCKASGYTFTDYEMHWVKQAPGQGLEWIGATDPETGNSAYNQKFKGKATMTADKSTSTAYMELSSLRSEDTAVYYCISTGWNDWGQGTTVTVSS VL: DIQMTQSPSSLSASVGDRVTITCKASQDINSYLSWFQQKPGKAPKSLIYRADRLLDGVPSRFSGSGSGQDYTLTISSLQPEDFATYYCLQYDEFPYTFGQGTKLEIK	52
405B8H3-9 humanized antibody (antibody, V domains shown) VH: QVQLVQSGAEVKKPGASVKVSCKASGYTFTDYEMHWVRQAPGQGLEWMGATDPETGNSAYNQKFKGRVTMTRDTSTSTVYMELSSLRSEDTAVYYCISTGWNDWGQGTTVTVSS VL: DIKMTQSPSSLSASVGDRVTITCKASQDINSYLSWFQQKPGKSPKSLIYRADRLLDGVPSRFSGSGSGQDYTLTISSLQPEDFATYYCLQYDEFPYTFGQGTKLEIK	132
405B8H3-6 humanized antibody (antibody, V domains shown) VH: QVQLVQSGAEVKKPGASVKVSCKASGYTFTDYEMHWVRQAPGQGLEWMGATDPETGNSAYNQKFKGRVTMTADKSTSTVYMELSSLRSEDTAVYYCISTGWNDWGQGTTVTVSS VL: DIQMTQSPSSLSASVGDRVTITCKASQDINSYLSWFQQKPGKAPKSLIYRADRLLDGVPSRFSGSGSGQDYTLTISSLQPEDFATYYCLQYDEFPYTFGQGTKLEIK	66
405B8H3-7 humanized antibody (antibody, V domains shown) VH: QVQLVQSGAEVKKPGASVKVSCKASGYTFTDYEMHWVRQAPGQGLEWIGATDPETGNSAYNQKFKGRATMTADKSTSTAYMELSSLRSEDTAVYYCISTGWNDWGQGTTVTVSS VL: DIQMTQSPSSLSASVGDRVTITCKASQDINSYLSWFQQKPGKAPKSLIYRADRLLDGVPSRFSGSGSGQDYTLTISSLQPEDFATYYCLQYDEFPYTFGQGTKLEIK	62
405B8H3-5 humanized antibody (antibody, V domains shown) VH: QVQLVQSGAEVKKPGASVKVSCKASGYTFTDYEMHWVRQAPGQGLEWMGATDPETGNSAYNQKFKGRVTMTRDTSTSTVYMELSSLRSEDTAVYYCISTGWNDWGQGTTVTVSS VL: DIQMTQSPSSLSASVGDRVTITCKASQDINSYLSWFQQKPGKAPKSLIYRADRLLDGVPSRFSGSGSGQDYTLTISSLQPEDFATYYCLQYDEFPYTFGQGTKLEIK	62

Now look at this one.
Task: Quick one: Mean fluorescence intensity for 405B8H3-3 humanized antibody (antibody, V domains shown) VH: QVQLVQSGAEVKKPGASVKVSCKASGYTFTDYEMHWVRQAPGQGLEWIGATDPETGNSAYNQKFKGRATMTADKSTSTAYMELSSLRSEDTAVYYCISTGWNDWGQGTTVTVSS VL: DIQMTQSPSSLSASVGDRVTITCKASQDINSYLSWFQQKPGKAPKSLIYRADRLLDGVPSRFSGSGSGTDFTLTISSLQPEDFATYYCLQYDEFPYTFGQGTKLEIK ?
Output: 74
